# Tested on: Mus musculus
# test.method.notes: Acute toxicity in human HepG2 cells xenografted ip dosed Swiss albino mouse assessed as mortality measured up to 2 weeks
# Format: organism-based
# test.parameters: in vivo, 336 h
readout.name: LD50
Units required after the number.

Check out these entries, answers already filled in.
>>> reading("CC1(C)CC(=O)C2=C(C1)Nc1nc3[nH]ncn3c(=O)c1C2c1ccc([N+](=O)[O-])cc1 (stereo unspecified)")
"0.1 mg/kg"
>>> reading("CSc1nc2c(c(=O)n1C)C(c1ccc([N+](=O)[O-])cc1)C1=C(CC(C)(C)CC1Cl)N2 (stereo unspecified)")
"0.1 mg/kg"
>>> reading("CC1(C)CC(=O)C2=C(C1)Nc1nc3[nH]nc(-c4ccc(Cl)cc4)n3c(=O)c1C2c1ccc([N+](=O)[O-])cc1 (stereo unspecified)")
"0.095 mg/kg"

For each of the compounds below, note its LD50.
1. CC1(C)CC(=O)C2=C(C1)Nc1nc(NN)[nH]c(=O)c1C2c1ccc([N+](=O)[O-])cc1 (stereo unspecified)
2. CSc1nc2c(c(=O)n1C)C(c1ccc([N+](=O)[O-])cc1)C1=C(CC(C)(C)CC1=O)N2 (stereo unspecified)
3. CC1(C)CC(=O)C2=C(C1)Nc1nc(N)[nH]c(=O)c1C2c1ccc([N+](=O)[O-])cc1 (stereo unspecified)

Output:
["0.089 mg/kg", "0.098 mg/kg", "0.095 mg/kg"]

====

For each entry below, report its LD50 value.
# Tested on: Mus musculus
# test.method.notes: Acute toxicity in human HeLa cells xenografted ip dosed Swiss albino mouse assessed as mortality measured up to 2 weeks
# Assay type: organism-based
# test.parameters: in vivo, 336 h
Numbers only, in mg/kg.

Known LD50 results, listed for orientation:
>>> reading("CSc1nc2c(c(=O)[nH]1)C(c1ccc([N+](=O)[O-])cc1)C1=C(CC(C)(C)CC1=O)N2[C@@H]1O[C@H](COC(C)=O)[C@@H](OC(C)=O)[C@H](OC(C)=O)[C@H]1OC(C)=O (some centres not stated)")
0.111
>>> reading("CSc1nc2c(c(=O)n1C)C(c1ccc([N+](=O)[O-])cc1)C1=C(CC(C)(C)CC1=O)N2 (configuration not stated)")
0.111
>>> reading("CC1(C)CC(=O)C2=C(C1)Nc1nc(NN)[nH]c(=O)c1C2c1ccc([N+](=O)[O-])cc1 (configuration not stated)")
0.1
>>> reading("CSc1nc2c(c(=O)[nH]1)C(c1ccc([N+](=O)[O-])cc1)C1=C(CC(C)(C)CC1=O)N2[C@@H]1O[C@H](CO)[C@@H](O)[C@H](O)[C@H]1O (some centres not stated)")
0.119
>>> reading("CC1(C)CC(=O)C2=C(C1)Nc1nc3[nH]nc(-c4ccc(Cl)cc4)n3c(=O)c1C2c1ccc([N+](=O)[O-])cc1 (configuration not stated)")
0.089

Field: LD50. Fill in for each record below.
1. CC1(C)CC(=O)C2=C(C1)Nc1nc3[nH]ncn3c(=O)c1C2c1ccc([N+](=O)[O-])cc1 (configuration not stated)
2. CC1(C)CC(=O)C2=C(C1)Nc1nc(Nn3c(=O)c4cc5c(=O)n(Nc6nc7c(c(=O)[nH]6)C(c6ccc([N+](=O)[O-])cc6)C6=C(CC(C)(C)CC6=O)N7)c(=O)c5cc4c3=O)[nH]c(=O)c1C2c1ccc([N+](=O)[O-])cc1 (configuration not stated)
3. CC1(C)CC(=O)C2=C(C1)Nc1nc(N/N=C\c3ccc(Cl)cc3)[nH]c(=O)c1C2c1ccc([N+](=O)[O-])cc1 (configuration not stated)

Output:
1. 0.098
2. 0.099
3. 0.09

Batch of 4 compounds: report LD50 for each.
1. CSc1nc2c(c(=O)[nH]1)C(c1ccc([N+](=O)[O-])cc1)C1=C(CC(C)(C)CC1=O)N2[C@@H]1OC[C@@H](O)[C@@H](O)[C@@H]1O (some centres not stated)
2. CC1(C)CC(=O)C2=C(C1)Nc1nc(N)[nH]c(=O)c1C2c1ccc([N+](=O)[O-])cc1 (configuration not stated)
3. CSc1nc2c(c(=O)n1C)C(c1ccc([N+](=O)[O-])cc1)C1=C(CC(C)(C)CC1Cl)N2 (configuration not stated)
4. Cc1cn2c(=O)c3c(nc2n1N)NC1=C(C(=O)CC(C)(C)C1)C3c1ccc([N+](=O)[O-])cc1 (configuration not stated)

Output:
0.116
0.09
0.103
0.09
